For each record, write down the corresponding microsomal CLint at 1 µM.
assay: Microsomal stability, mouse liver microsomes; type: in vitro ADME; conditions: male, CD-1, mouse, pH 7.4; murine liver microsomes; read-out: CLint mLM
Give bare numbers, in µL/min/mg.

In the examples that follow, each entry is paired with its recorded microsomal CLint at 1 µM.
COc1ccc(C(=O)Nc2sc3c(c2C(=O)O)CCC(C(C)(C)C)C3)cc1 (centres unmarked) [dEF2665] ... 50
O=C(Nc1scc(C2CCc3ccccc3C2)c1C(=O)O)c1ccccc1 (racemic) [dEF2905] ... 29
COc1ccc(C(=O)Nc2sc3c(c2C(=O)O)CCC(C)(C)C3)cc1OC [dEF2788] ... 14

Consider now this further compound.
Q) Item O=C(Nc1scc(C2CCc3ccccc3C2)c1C(=O)O)c1ccccc1 (centres unmarked) [dEF3122] has what recorded microsomal CLint at 1 µM?
A) 24
